- ASSAY SYSTEM: Muscarinic acetylcholine receptor M5 (Homo sapiens, UniProt P08912)
- Sequence (P08912 whole entry): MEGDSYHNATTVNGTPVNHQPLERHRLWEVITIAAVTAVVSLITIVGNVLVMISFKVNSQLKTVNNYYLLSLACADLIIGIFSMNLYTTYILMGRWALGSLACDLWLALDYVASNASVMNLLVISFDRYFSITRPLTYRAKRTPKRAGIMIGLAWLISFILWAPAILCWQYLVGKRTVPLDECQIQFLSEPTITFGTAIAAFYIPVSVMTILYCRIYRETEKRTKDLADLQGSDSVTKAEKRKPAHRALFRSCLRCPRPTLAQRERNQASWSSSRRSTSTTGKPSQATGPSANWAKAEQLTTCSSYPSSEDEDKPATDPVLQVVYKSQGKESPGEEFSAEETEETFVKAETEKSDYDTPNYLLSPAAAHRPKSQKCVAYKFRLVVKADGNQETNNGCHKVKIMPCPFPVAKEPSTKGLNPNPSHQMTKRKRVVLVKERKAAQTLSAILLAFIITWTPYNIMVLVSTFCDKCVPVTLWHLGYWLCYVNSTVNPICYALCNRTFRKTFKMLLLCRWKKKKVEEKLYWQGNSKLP
- METHOD SUMMARY: Inhibition of [3H]- NMS binding against human recombinant Muscarinic acetylcholine receptor M5
READOUT NAME: pIC50
One number for each entry, as −log10 of the molar value.

What value of pIC50 has been reported for the following compound? O=C1COc2cc(CN3CCN(c4ccc(Cl)cc4)CC3)ccc2N1
5.87
